test system: Ureaplasma parvum; test: Antimicrobial activity against Ureaplasma parvum SV14 isolate HPA32 after 48 hrs by modified broth microdilution technique; assay type: functional; details: SV14 isolate HPA32, 48 h
Observation Type: MIC

Before answering, review these 2 worked examples.
Structure Smiles: O=C(O)c1cn(C2CC2)c2cc(N3CCNCC3)c(F)cc2c1=O
Measured On: Ureaplasma parvum
MIC: < 2 µg/mL

Structure Smiles: CC[C@H]1OC(=O)[C@H](C)[C@@H](O[C@H]2C[C@@](C)(OC)[C@@H](O)[C@H](C)O2)[C@H](C)[C@@H](O[C@@H]2O[C@H](C)C[C@H](N(C)C)[C@H]2O)[C@](C)(O)C[C@@H](C)CN(C)[C@H](C)[C@@H](O)[C@]1(C)O
Measured On: Ureaplasma parvum
MIC: < 0.25 µg/mL

Q) Provide value of MIC for this record tested with Ureaplasma parvum: C[C@H]1c2cccc(O)c2C(=O)C2=C(O)[C@]3(O)C(=O)C(C(N)=O)=C(O)[C@@H](N(C)C)[C@@H]3[C@@H](O)[C@@H]21.O
A) 0.25 µg/mL

====

tested on: Ureaplasma urealyticum; test: Antimicrobial activity against Ureaplasma urealyticum isolate HPA3 after 48 hrs by modified broth microdilution technique; assay type: functional; conditions: isolate HPA3, 48 h
Observation Type: MIC

Molecule: C[C@H]1c2cccc(O)c2C(=O)C2=C(O)[C@]3(O)C(=O)C(C(N)=O)=C(O)[C@@H](N(C)C)[C@@H]3[C@@H](O)[C@@H]21.O [DOXYCYCLINE]
MIC: 0.5 µg/mL

Q) What value of MIC has been reported for the following molecule? CC[C@H]1OC(=O)[C@H](C)[C@@H](O[C@H]2C[C@@](C)(OC)[C@@H](O)[C@H](C)O2)[C@H](C)[C@@H](O[C@@H]2O[C@H](C)C[C@H](N(C)C)[C@H]2O)[C@](C)(O)C[C@@H](C)C(=O)[C@H](C)[C@@H](O)[C@]1(C)O [ERYTHROMYCIN]
A) 4 µg/mL

Q) What value of MIC has been reported for the following molecule? O=C(O)c1cn(C2CC2)c2cc(N3CCNCC3)c(F)cc2c1=O [CIPROFLOXACIN]
A) 4 µg/mL

Q) What value of MIC has been reported for the following molecule? CC[C@H]1OC(=O)[C@H](C)[C@@H](O[C@H]2C[C@@](C)(OC)[C@@H](O)[C@H](C)O2)[C@H](C)[C@@H](O[C@@H]2O[C@H](C)C[C@H](N(C)C)[C@H]2O)[C@](C)(OC)C[C@@H](C)C(=O)[C@H](C)[C@@H](O)[C@]1(C)O [CLARITHROMYCIN]
A) < 0.125 µg/mL

Q) What value of MIC has been reported for the following molecule? CC[C@H]1OC(=O)[C@H](C)[C@@H](O[C@H]2C[C@@](C)(OC)[C@@H](O)[C@H](C)O2)[C@H](C)[C@@H](O[C@@H]2O[C@H](C)C[C@H](N(C)C)[C@H]2O)[C@](C)(O)C[C@@H](C)CN(C)[C@H](C)[C@@H](O)[C@]1(C)O [AZITHROMYCIN]
A) 0.5 µg/mL

Q) What value of MIC has been reported for the following molecule? CN(C)[C@@H]1C(O)=C(C(N)=O)C(=O)[C@@]2(O)C(O)=C3C(=O)c4c(O)cccc4[C@@](C)(O)[C@H]3C[C@@H]12 [TETRACYCLINE]
A) 2 µg/mL
